The reported measurements were obtained from ChEMBL document CHEMBL1152649.

- Tested on: SF-539
- TEST_DETAILS: Antiproliferative activity against human SF539 cells assessed as cell growth at 10 uM
- Assay type: functional
- PROTOCOL_CONDITIONS: read-out: Activity
MEASUREMENT_KIND: growth at 10 µM (%)
Kindly provide the numeric value in % only, without the unit symbol.

O=C1c2ccccc2C(=O)c2c1ccc1nsnc21
-47.1
O=C1c2ccccc2C(=O)c2c1ccc1nc(-c3ccc4c(c3)OCO4)[nH]c21
108
CC1(C)Nc2ccc3c(c2N1)C(=O)c1ccccc1C3=O
93.6

Query: growth at 10 µM; subject: `O=C1c2ccccc2C(=O)c2c1ccc1nccnc21`
40.7

Tell me the measured growth at 10 µM of `O=C1c2ccccc2C(=O)c2c1ccc1nc(-c3ccc(Br)cc3)[nH]c21` , please.
103

====

- TEST_DETAILS: Cytotoxicity against human H1299 cells at 1 uM after 48 hrs by MTT assay
- Format: functional
- PROTOCOL_CONDITIONS: NCI-H1299, 48 h
Listed next: entries and their corresponding viability at 1 µM.
I only need the number, in %, no unit after it.

Look over these answered cases.
O=C1c2ccccc2C(=O)c2c1ccc1nc(-c3ccccc3)[nH]c21
79
N#Cc1ccc(-c2nc3ccc4c(c3[nH]2)C(=O)c2ccccc2C4=O)cc1
80
COc1cc(-c2nc3ccc4c(c3[nH]2)C(=O)c2ccccc2C4=O)ccc1O
71
CC/C=C/c1nc2ccc3c(c2[nH]1)C(=O)c1ccccc1C3=O
69
CC(C)c1nc2ccc3c(c2[nH]1)C(=O)c1ccccc1C3=O
95
CC1(C)Nc2ccc3c(c2N1)C(=O)c1ccccc1C3=O
98

Moving on to another compound below.
Which viability at 1 µM value belongs to `O=C1c2ccccc2C(=O)c2c1ccc1nc(-c3ccc([N+](=O)[O-])cc3)[nH]c21` ?
84

====

- Tested on: SK-MEL-5
- TEST_DETAILS: Antiproliferative activity against human SK-MEL-5 cells assessed as cell growth at 10 uM
- Type: functional
- PROTOCOL_CONDITIONS: read-out: Activity
Here, each record is paired with measured growth at 10 µM data.
Write down the numeric answer in % and omit the unit.

The examples below pair each entry with its known result.
CCc1nc2ccc3c(c2[nH]1)C(=O)c1ccccc1C3=O
60.8
O=C1c2ccccc2C(=O)c2c1ccc1nsnc21
8.52
CC1(C)Nc2ccc3c(c2N1)C(=O)c1ccccc1C3=O
86.5
COc1cc(-c2nc3ccc4c(c3[nH]2)C(=O)c2ccccc2C4=O)ccc1O
88.1
O=C1c2ccccc2C(=O)c2c1ccc1nccnc21
66.6
CN(C)c1ccc(-c2nc3ccc4c(c3[nH]2)C(=O)c2ccccc2C4=O)cc1
93.8
N#Cc1ccc(-c2nc3ccc4c(c3[nH]2)C(=O)c2ccccc2C4=O)cc1
103
O=C1c2ccccc2C(=O)c2c1ccc1nc(-c3ccccc3)[nH]c21
65.2

// lookup growth at 10 µM for `Cc1ccc(-c2nc3ccc4c(c3[nH]2)C(=O)c2ccccc2C4=O)cc1`
88

Quick one: growth at 10 µM of `O=C1c2ccccc2C(=O)c2c1ccc1nc(-c3ccc4c(c3)OCO4)[nH]c21` ?
98.7

For the compound shown here, `O=C1c2ccccc2C(=O)c2c1ccc1nc(-c3ccc(Br)cc3)[nH]c21` , give the reported growth at 10 µM.
87.1

====

- Test system: SNB-75
- TEST_DETAILS: Antiproliferative activity against human SNB75 cells assessed as cell growth at 10 uM
- Format: functional
- PROTOCOL_CONDITIONS: read-out: Activity
MEASUREMENT_KIND: growth at 10 µM (%)
# value in %; strip the unit string

As a guide, the following entries are already answered.
O=C1c2ccccc2C(=O)c2c1ccc1nc(-c3ccc(Br)cc3)[nH]c21
87.3
CC1(C)Nc2ccc3c(c2N1)C(=O)c1ccccc1C3=O
78
N#Cc1ccc(-c2nc3ccc4c(c3[nH]2)C(=O)c2ccccc2C4=O)cc1
63.2
O=C1c2ccccc2C(=O)c2c1ccc1nsnc21
79
CCc1nc2ccc3c(c2[nH]1)C(=O)c1ccccc1C3=O
55.1
Cc1ccc(-c2nc3ccc4c(c3[nH]2)C(=O)c2ccccc2C4=O)cc1
107

Which measured growth at 10 µM value corresponds to `O=C1c2ccccc2C(=O)c2c1ccc1nccnc21` ?
105

Would you mind telling me what growth at 10 µM value was observed for `CN(C)c1ccc(-c2nc3ccc4c(c3[nH]2)C(=O)c2ccccc2C4=O)cc1` ?
93.1

Would you mind telling me what growth at 10 µM value was observed for `COc1cc(-c2nc3ccc4c(c3[nH]2)C(=O)c2ccccc2C4=O)ccc1O` ?
86

Tell me the measured growth at 10 µM of `O=C1c2ccccc2C(=O)c2c1ccc1nc(-c3ccc4c(c3)OCO4)[nH]c21` , please.
102

Please look up its growth at 10 µM: `O=C1c2ccccc2C(=O)c2c1ccc1nc(-c3ccccc3)[nH]c21`
75.1

====

- System: HOP-62
- TEST_DETAILS: Antiproliferative activity against human HOP62 cells assessed as cell growth at 10 uM
- Format: functional
- PROTOCOL_CONDITIONS: read-out: Activity
MEASUREMENT_KIND: growth at 10 µM (%)
Numbers only; they are read as %.

O=C1c2ccccc2C(=O)c2c1ccc1nc(-c3ccc(Br)cc3)[nH]c21
104
CCc1nc2ccc3c(c2[nH]1)C(=O)c1ccccc1C3=O
97.7
O=C1c2ccccc2C(=O)c2c1ccc1nsnc21
-100
Cc1ccc(-c2nc3ccc4c(c3[nH]2)C(=O)c2ccccc2C4=O)cc1
110
COc1cc(-c2nc3ccc4c(c3[nH]2)C(=O)c2ccccc2C4=O)ccc1O
116

Fill in the blank: the reported growth at 10 µM of `CN(C)c1ccc(-c2nc3ccc4c(c3[nH]2)C(=O)c2ccccc2C4=O)cc1` is ____.
102

growth at 10 µM for `O=C1c2ccccc2C(=O)c2c1ccc1nc(-c3ccc4c(c3)OCO4)[nH]c21` ?
114

Fill in the blank: the reported growth at 10 µM of `O=C1c2ccccc2C(=O)c2c1ccc1nc(-c3ccccc3)[nH]c21` is ____.
109

====

- Tested on: SNB-19
- TEST_DETAILS: Antiproliferative activity against human SNB19 cells assessed as cell growth at 10 uM
- Assay type: functional
- PROTOCOL_CONDITIONS: read-out: Activity
MEASUREMENT_KIND: growth at 10 µM (%)
Respond numerically; units are % and should not be typed.

O=C1c2ccccc2C(=O)c2c1ccc1nc(-c3ccc4c(c3)OCO4)[nH]c21
121
CC1(C)Nc2ccc3c(c2N1)C(=O)c1ccccc1C3=O
94.3
CCc1nc2ccc3c(c2[nH]1)C(=O)c1ccccc1C3=O
74.9
O=C1c2ccccc2C(=O)c2c1ccc1nccnc21
87.3
O=C1c2ccccc2C(=O)c2c1ccc1nc(-c3ccc(Br)cc3)[nH]c21
101
O=C1c2ccccc2C(=O)c2c1ccc1nc(-c3ccccc3)[nH]c21
102
O=C1c2ccccc2C(=O)c2c1ccc1nsnc21
79
CN(C)c1ccc(-c2nc3ccc4c(c3[nH]2)C(=O)c2ccccc2C4=O)cc1
127

Can you share its growth at 10 µM? I mean this molecule: `N#Cc1ccc(-c2nc3ccc4c(c3[nH]2)C(=O)c2ccccc2C4=O)cc1`
97.8

Which growth at 10 µM is listed for `Cc1ccc(-c2nc3ccc4c(c3[nH]2)C(=O)c2ccccc2C4=O)cc1` ?
97.8

Find the recorded growth at 10 µM belonging to `COc1cc(-c2nc3ccc4c(c3[nH]2)C(=O)c2ccccc2C4=O)ccc1O` and report it.
97.4

====

- TEST_DETAILS: Antiproliferative activity against human Hs 578T cells assessed as cell growth at 10 uM
- Format: functional
- PROTOCOL_CONDITIONS: read-out: Activity
Parameter: growth at 10 µM. Scope: all listed entries.
Response body: numeric value in %, unit text excluded.

Given the compound `COc1cc(-c2nc3ccc4c(c3[nH]2)C(=O)c2ccccc2C4=O)ccc1O` , what is its reported growth at 10 µM?
167

// lookup growth at 10 µM for `O=C1c2ccccc2C(=O)c2c1ccc1nc(-c3ccc(Br)cc3)[nH]c21`
181

Query (compound): `O=C1c2ccccc2C(=O)c2c1ccc1nc(-c3ccccc3)[nH]c21` ; field requested: growth at 10 µM
30.4

Dear colleague, I am looking for the recorded growth at 10 µM of the following compound: `N#Cc1ccc(-c2nc3ccc4c(c3[nH]2)C(=O)c2ccccc2C4=O)cc1`
102

Dear colleague, I am looking for the recorded growth at 10 µM of the following compound: `CC1(C)Nc2ccc3c(c2N1)C(=O)c1ccccc1C3=O`
68.4

====

- TEST_DETAILS: Cytotoxicity against human H1299 cells at 100 uM after 48 hrs by MTT assay
- Type: functional
- PROTOCOL_CONDITIONS: NCI-H1299, 48 h
Each entry falls in a class defined on viability at 100 µM; the bands are range A (below 20%), range B (20% to below 30%), range C (30% or more)

Categorize the following entry: `CC(C)c1nc2ccc3c(c2[nH]1)C(=O)c1ccccc1C3=O`
range C
